From: patent US20210261539A1

subject.of.test: BRD4 BD1 (Homo sapiens, UniProt O60885)
Construct: Protein BRD4 BD1 used in the assay was purchased from Active Motif (cat. 31380)
experimental.details: HTRF in vitro enzyme activity assay, inhibition of BRD4 BD1 binding to acetylated H4 peptide
condition.summary: IC50 values of the compounds against BRD4 BD1 binding; class symbols A/B/C
Kindly supply the reported IC50 values for the records listed here.

Below, each entry is followed by its recorded IC50 result.
{"columns": ["molecule", "subject.of.test", "IC50"],
 "data": [
  ["CC1C(=O)N(C)c2ccc(N3C(=O)c4cc(C(=O)N5CCN(C)CC5)ccc4C3c3ccc(F)cc3)nc2N1C1CC1 (single isomer, unassigned)", "BRD4 BD1 (Homo sapiens, UniProt O60885)", "≤ 10 nM"],
  ["CC[S+]([O-])c1cccc2c1C(=O)N(c1ccc3c(n1)N(C1CC1)C(C)C(=O)N3C)C2c1cccnc1 (stereo not drawn)", "BRD4 BD1 (Homo sapiens, UniProt O60885)", "≤ 10 nM"]
]}

Next item in the queue.
Item CC(=O)N1c2nc(N3C(=O)CCC3c3ccc(F)cc3)ccc2N(C)C(=O)[C@H]1C (single isomer, unassigned) [Example A17-P1] ; assay system BRD4 BD1 (Homo sapiens, UniProt O60885); IC50 reported as 100 to 1000 nM

* * *

subject.of.test: BRD4 BD1 (Homo sapiens)
Construct: Protein BRD4 BD1 used in the assay was purchased from Active Motif (cat. 31380)
experimental.details: HTRF in vitro enzyme activity assay, inhibition of BRD4 BD1 binding to acetylated H4 peptide
condition.summary: IC50 values of the compounds against BRD4 BD1 binding; class symbols A/B/C
Record form. Attribute: IC50. Fill in for each entry.

Example results:
{"columns": ["compound", "metric.name", "endpoint.result"],
 "data": [
  ["CC1C(=O)N(C)c2ccc(N3C(=O)N(C)CC3c3ccccc3)nc2N1C1CC1 (single isomer, unassigned)", "IC50", "≤ 10 nM"],
  ["CC1C(=O)N(C)c2ccc(-n3c(=O)c4ccccc4n3-c3ccc(Cl)cc3)nc2N1C1COC1 (stereo not drawn) [Example A26-P2]", "IC50", "≤ 10 nM"]
]}

Now consider a different compound.
Let me check: CC1C(=O)N(C)c2ccc(N3C(=O)NCC3c3ccccc3)nc2N1C1CC1 (single isomer, unassigned) , system BRD4 BD1 (Homo sapiens), measured IC50 is ≤ 10 nM

* * *

Would you mind telling me the reported pIC50 of each entry?
subject.of.test: BRD4 BD1 (Homo sapiens, UniProt O60885)
Construct: Protein BRD4 BD1 used in the assay was purchased from Active Motif (cat. 31380)
experimental.details: HTRF in vitro enzyme activity assay, inhibition of BRD4 BD1 binding to acetylated H4 peptide
condition.summary: IC50 values of the compounds against BRD4 BD1 binding; class symbols A/B/C
pIC50: −log10 of the molar value.

Batch lookup, pIC50 per entry.
1. CC1C(=O)N(C)c2cnc(-n3c(=O)c4ccccc4n3-c3ccc(Cl)cc3)cc2N1C1CC1 (stereo not drawn) [Example A29-P4]
2. CC1C(=O)N(C)c2ccc(N3C(=O)c4ccccc4C3(O)c3ccc(F)cc3)nc2N1C1CC1 (stereo not drawn) [Compound A25]
3. C[C@@H]1C(=O)N(C)c2ccc(N3C(=O)c4c(cccc4[S+](C)[O-])C3c3cccnc3)nc2N1C (single isomer, unassigned) [Example A63-P3]
4. C[C@H]1Oc2cc(N3C(=O)c4cc(F)ccc4C3c3cccnc3)ncc2N(C)C1=O (stereo partly drawn) [Example A117]
5. Cc1ccc(C2c3ccccc3C(=O)N2c2nc3c(cc2F)N(C)C(=O)[C@@H](C)O3)cn1 (stereo partly drawn) [Example A114-P3]
6. C[C@@H]1C(=O)N(C)c2cnc(N3C(=O)c4c(cccc4C(C)(C)O)C3c3ccc(F)cc3)nc2N1C (single isomer, unassigned) [Example A96-P1]

stdout:
1: ≥ 8.00; 2: 7.00 to 8.00; 3: ≥ 8.00; 4: 6.00 to 7.00; 5: 6.00 to 7.00; 6: ≥ 8.00

Hi there! I need pIC50 for each item below, if you can.
1. CC1C(=O)N(C)c2ccc(N3C(=O)CCC3c3ccccc3)nc2N1C1CC1 (single isomer, unassigned) [Example A1-P2-2]
2. C[C@H]1Oc2nc(N3C(=O)c4ccccc4C3c3cccnc3)ccc2N(C)C1=O (stereo partly drawn) [Example A33-P1]
3. CC1C(=O)N(C)c2ccc(N3C(=O)c4c(C(=O)N5CCN(C)CC5)cccc4C3c3ccc(F)cc3)nc2N1C1CC1 (single isomer, unassigned) [Example A82-P4]

stdout:
1. ≥ 8.00
2. ≥ 8.00
3. ≥ 8.00

Go through the items and report each one's pIC50.
1. CC1C(=O)N(C)c2ccc(N3C(=O)c4ccccc4C3c3ccc(F)cc3)nc2N1C1CCCC1 (racemic) [Example A38]
2. Cc1ccc(-n2c3ccccc3c(=O)n2-c2ccc3c(n2)N(C2CC2)C(C)C(=O)N3C)cn1 (single isomer, unassigned) [Example A50-P3]
3. C[C@@H]1C(=O)N(C)c2cnc(N3C(=O)c4ccccc4C3c3cccnc3)nc2N1C (stereo partly drawn) [Example A90-P4]
4. Cc1ccc(C2CCC(=O)N2c2ccc3c(n2)N(C2CC2)C(C)C(=O)N3C)cc1 (single isomer, unassigned) [Example A8-P3]
5. CCN1C(=O)C(C)N(C2CCCC2)c2nc(-n3c(=O)c4ccccc4n3-c3ccc(Cl)cc3)ccc21 (racemic) [Example A28]

stdout:
7.00 to 8.00
≥ 8.00
≥ 8.00
≥ 8.00
7.00 to 8.00

Lab note: each molecule below needs its pIC50 filled in.
1. CC1C(=O)N(C)c2ccc(N3C(=O)c4ccccc4C3c3ccncc3)nc2N1C1CC1 (stereo not drawn) [Example A58-P1]
2. C[C@H]1Oc2nc(N3C(=O)c4ccccc4C3c3ccc(F)nc3)c(F)cc2N(C)C1=O (single isomer, unassigned) [Example A126-P1]
3. CC1C(=O)N(C)c2cnc(N3C(=O)c4ccccc4C3c3ccc(F)nc3)nc2N1C1CC1 (single isomer, unassigned) [Example A101-P3]

stdout:
1: ≥ 8.00; 2: 7.00 to 8.00; 3: ≥ 8.00

* * *

I'd be grateful if you could share measured IC50 for these entries.
subject.of.test: BRD4 BD1 (Homo sapiens)
Construct: Protein BRD4 BD1 used in the assay was purchased from Active Motif (cat. 31380)
experimental.details: HTRF in vitro enzyme activity assay, inhibition of BRD4 BD1 binding to acetylated H4 peptide
condition.summary: IC50 values of the compounds against BRD4 BD1 binding; class symbols A/B/C

Answered examples (4):
{"columns": ["compound", "IC50"],
 "data": [
  ["COC(=O)c1cccc2c1C(=O)N(c1ccc3c(n1)N(C1CC1)C(C)C(=O)N3C)C2c1cccnc1 (single isomer, unassigned)", "≤ 10 nM"],
  ["Cc1ccc(-n2c3ccccc3c(=O)n2-c2ccc3c(n2)N(C2CC2)C(C)C(=O)N3C)cn1 (single isomer, unassigned) [Example A50-P4]", "≤ 10 nM"],
  ["CCN1C(=O)[C@@H](C)Oc2nc(N3C(=O)c4ccccc4C3c3cccnc3)ccc21 (stereo partly shown)", "10 to 100 nM"],
  ["C[C@H]1Oc2nc(N3C(=O)c4ccccc4C3c3ccc(F)cn3)ccc2N(C)C1=O (single isomer, unassigned) [Example A110-P1]", "≤ 10 nM"]
]}

Below is a list of compounds. For each, state its recorded IC50.
1. CC1C(=O)N(C)c2ccc(N3C(=O)c4cccc(F)c4C3c3cccnc3)nc2N1C1CC1 (single isomer, unassigned)
2. CC1C(=O)N(C)c2cc(F)c(N3C(=O)c4ccccc4C3c3cccnc3)nc2N1C1CC1 (stereo not shown)
3. CC1C(=O)N(C)c2cnc(-n3c(=O)c4ccccc4n3-c3ccc(Cl)cc3)nc2N1C1CC1 (single isomer, unassigned)
4. C[C@H]1Oc2nc(N3C(=O)c4ccccc4C3c3cccnc3)c(F)cc2N(C)C1=O (single isomer, unassigned) [Example A124-P1]
5. CC1C(=O)N(C)c2ccc(N3C(=O)c4c(cccc4[S+](C)[O-])C3c3cccnc3)nc2N1C1CC1 (single isomer, unassigned) [Example A60-P3]
6. Cc1ccc(C2c3ccccc3C(=O)N2c2cc3c(cn2)N(C)C(=O)[C@@H](C)O3)cn1 (single isomer, unassigned) [Example A113-P1]
7. CC1C(=O)N(C)c2ccc(N3C(=O)c4ccccc4C3(O)c3ccc(Cl)cc3)nc2N1C1CC1 (racemic)

stdout:
1: ≤ 10 nM; 2: ≤ 10 nM; 3: ≤ 10 nM; 4: 10 to 100 nM; 5: ≤ 10 nM; 6: 100 to 1000 nM; 7: 10 to 100 nM

Dear colleague, could you send me IC50 for each of the items below? Thanks.
1. CC1C(=O)N(C)c2ccc(N3C(=O)c4ccccc4C3c3cccnc3)nc2N1C1COC1 (stereo not shown)
2. CC1C(=O)N(C)c2ccc(-n3c(=O)c4ccccc4n3-c3ccc(C#N)cc3)nc2N1C1CC1 (stereo not shown) [Example A27-P1]
3. CC1C(=O)N(C)c2cnc(N3C(=O)c4ccccc4C3c3cccnc3)cc2N1C1CC1 (single isomer, unassigned)

stdout:
1. ≤ 10 nM
2. ≤ 10 nM
3. ≤ 10 nM

Provide IC50 values for the following items, in order.
1. C[C@@H]1C(=O)N(C)c2ccc(N3C(=O)c4ccccc4C3c3cccnc3)nc2N1CCF (single isomer, unassigned) [Example A55-P2]
2. CC1C(=O)N(C)c2ccc(N3C(=O)CCC3c3ccc(F)cc3)nc2N1C1CC1 (single isomer, unassigned) [Example A22-P1]

stdout:
1. ≤ 10 nM
2. 10 to 100 nM

Would you be so kind as to report IC50 for each listed record?
1. CC1C(=O)N(C)c2ccc(N3C(=O)c4c(cccc4S(C)(=O)=O)C3c3cccnc3)nc2N1C1CC1 (single isomer, unassigned)
2. CC1C(=O)N(C)c2ccc(N3C(=O)c4c(cccc4[S+](C)[O-])C3c3cccnc3)nc2N1C1CC1 (single isomer, unassigned) [Example A60-P2]

stdout:
["≤ 10 nM", "≤ 10 nM"]

The recorded IC50 for C[C@H]1Nc2nc(N3C(=O)CCC3c3ccccc3)ccc2N(C)C1=O (single isomer, unassigned) [Example A20-P1] is 10 to 100 nM
